Reference source: patent US20220387586A1

# Subject Of Test: T1, hu PD1-ECD (human, UniProt Q15116 25-170)
# T1 construct: SPR analyte; also called human PD1-ECD
# Test Protocol: SPR (Biacore T200), antibody captured by anti-human IgG, hu PD1-ECD as analyte, 25 °C, 1:1 Langmuir fit
In this section, each of the binders is paired with its reported kon.
Lab book: enter the figure in M⁻¹ s⁻¹, no units written.

chimeric PD1-0103 (antibody, human IgG1, V domains shown, also called chiPD1-0103) VH: EVILVESGGGLVKPGGSLKLSCAASGFSFSSYTMSWVRQTPEKRLDWVATISGGGRDIYYPDSVKGRFTISRDNAKNTLYLEMSSLMSEDTALYYCVLLTGRVYFALDSWGQGTSVTVSS VL: KIVLTQSPASLPVSLGQRATISCRASESVDTSDNSFIHWYQQRPGQSPKLLIYRSSTLESGVPARFSGSGSRTDFTLTIDPVEADDVATYYCQQNYDVPWTFGGGTKLEIK ... 386000
PD1-0103-0313 (antibody, human IgG1, V domains shown, Humanized; also called PD1-103-0313; PD-0103-0313) VH: EVQLLESGGGLVQPGGSLRLSCAASGFSFSSYTMSWVRQAPGKGLEWVATISGGGRDIYYPDSVKGRFTISRDNSKNTLYLQMNSLRAEDTAVYYCVLLTGRVYFALDSWGQGTLVTVSS VL: DVVMTQSPLSLPVTLGQPASISCRASESVDTSDNSFIHWYQQRPGQSPRLLIYRSSTLESGVPDRFSGSGSGTDFTLKISRVEAEDVGVYYCQQNYDVPWTFGQGTKVEIK ... 160000

Ask: Give kon for the following binder: PD1-0103-0312 (antibody, human IgG1, V domains shown, Humanized; also called PD1-103-0312; PD-0103-0312) VH: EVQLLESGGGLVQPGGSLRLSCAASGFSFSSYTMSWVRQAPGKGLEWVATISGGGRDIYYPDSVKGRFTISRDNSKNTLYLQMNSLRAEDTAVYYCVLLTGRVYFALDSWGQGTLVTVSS VL: DIVMTQSPDSLAVSLGERATINCKASESVDTSDNSFIHWYQQKPGQSPKLLIYRSSTLESGVPDRFSGSGSGTDFTLTISSLQAEDVAVYYCQQNYDVPWTFGQGTKVEIK
Reply: 195000

Ask: Give kon for the following binder: PD1-0103-0314 (antibody, human IgG1, V domains shown, Humanized; also called PD1-103-0314; PD-0103-0314) VH: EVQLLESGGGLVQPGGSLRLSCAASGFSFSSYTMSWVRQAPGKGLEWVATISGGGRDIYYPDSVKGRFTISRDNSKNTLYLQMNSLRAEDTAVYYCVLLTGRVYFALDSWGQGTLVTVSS VL: EIVLTQSPATLSLSPGERATLSCRASESVDTSDNSFIHWYQQKPGQSPRLLIYRSSTLESGIPARFSGSGSGTDFTLTISSLEPEDFAVYYCQQNYDVPWTFGQGTKVEIKR
Reply: 187000
